Assay: chemical genetic growth profiling, strain panel (AID 1159580);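 further: tested at 20 µM; growth read once vehicle control cultures reached saturation at 30 °C; 1 = growth at the plate median or of vehicle wells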
Conditions: S. cerevisiae deletion strains, growth OD, locus YOR231W, strain MKK1
Hit rate of the full screen: of about 5,500 compounds, about 2,000 (36%) were called active. About 18% were inconclusive and are not listed. No stated cut-off is given here; in the data, active means normalized growth mostly below about 0.91 (no sharp cut-off); inconclusive means no clear call, values can overlap the other calls; inactive means mostly above about 0.92. The list shows a part of the results.
Outcome field: choose from active, inactive

Illustrative cases are given below, each with its answer.
• CCN(CC)C(=O)c1cccc(C)c1 = inactive
• COc1ccc(CCN2CCC(Nc3nc4ccccc4n3Cc3ccc(F)cc3)CC2)cc1 = inactive
• Cc1c(Cl)cccc1Nc1ccccc1C(=O)O = active

Called result for COC(=O)c1sccc1-c1ccc(/C=C/[N+](=O)[O-])o1 active

Called result for Cc1onc(-c2c(Cl)cccc2Cl)c1C(=O)NNc1c(Cl)cccc1Cl inactive

Called result for O=c1[nH]oc2c1CCNC2 inactive

* * *

Measured normalized growth values are reported for all entries that follow.
Assay: chemical genetic growth profiling, strain panel (AID 1159580)
Conditions: S. cerevisiae deletion strains, growth OD, locus YER016W, strain bim1, active compounds read low
Among all 5,500 compounds or so, about 2,000 (36%) were called active. Inconclusive results (about 18%) are left out. The list shows a part of the results.
A bare number is all that is needed in reply.

Worked set:
• CC(C)(Oc1ccc(C2CC2(Cl)Cl)cc1)C(=O)O (centres undefined) = 1
• CCNC(=O)CC[C@H](N)C(=O)O = 0.991
• CC(C)[C@@H]1CC[C@@H](C)C[C@H]1O = 0.992
• CCCCC(=O)Oc1ccccc1C(=O)O = 0.977
• CCCCN(CCCC)CCCOC(=O)c1ccc(N)cc1 = 0.991
• COc1ccc(-c2coc3cc(OC)cc(OC)c3c2=O)cc1 = 0.99

normalized growth reported for this compound OCCOCCN1CCN(C2=Nc3ccccc3Sc3ccccc32)CC1 : 1.01

normalized growth reported for this compound Nc1ccc(N=Nc2ccccc2)c(N)n1 : 0.853

normalized growth reported for this compound Oc1ccc(Cl)cc1 : 0.997

normalized growth reported for this compound CCCCNc1ccc(C(=O)OCCN(C)C)cc1 : 1.02

normalized growth reported for this compound O=C1NC(=O)C(=O)C(=O)N1 : 0.99

normalized growth reported for this compound CCN(CC)C(=O)c1cccc(C)c1 : 1.02

normalized growth reported for this compound CCCCOC(=O)c1ccccc1C(=O)OCCCC : 0.986

normalized growth reported for this compound Oc1ccc(Cl)cc1Cc1cc(Cl)ccc1O : 0.0644

* * *

Measured normalized growth values are reported for all entries that follow.
Test: chemical genetic growth profiling, strain panel (AID 1159580)
Conditions: S. cerevisiae deletion strains, growth OD, locus YDR502C, strain sam2, active compounds read low
About 2,000 (36%) of roughly 5,500 compounds were called active. Another 18% or so got no clear call; they are omitted. The list shows a part of the results.
A bare number is all that is needed in reply.

- OCc1ccccc1O: 0.988
- CCN(CC)CCOC(=O)c1ccc(N)cc1: 0.997
- CCN(CC)C(=O)c1cccc(C)c1: 0.994
- CC1(C)C2CC(=O)[C@]3(C)C(CC[C@@]4(C)[C@H](c5ccoc5)OC(=O)[C@H]5O[C@]543)[C@@]2(C)C=C[C@@H]1O (stereo partly specified): 0.967
- CCCCNc1ccc(C(=O)OCCN(C)C)cc1: 1
- Oc1ccc(Cl)cc1: 0.979
- Oc1ccc(Cl)cc1Cc1cc(Cl)ccc1O: 0.0624
- O=C1[C@H](CCC(O)c2ccc(F)cc2)[C@@H](c2ccc(O)cc2)N1c1ccc(F)cc1 (stereo partly specified): 0.98
- CCCCCCOc1ccccc1C(N)=O: 0.546
- CCCCN(CCCC)CCCOC(=O)c1ccc(N)cc1: 1.01

Pending molecule:
normalized growth reported for this molecule NC[C@@H]1CC[C@@H](N)[C@@H](O[C@H]2[C@H](O)[C@@H](O[C@H]3O[C@H](CO)[C@@H](O)[C@H](N)[C@H]3O)[C@H](N)C[C@@H]2N)O1 : 1

* * *

Measured normalized growth values are reported for all entries that follow.
Test: chemical genetic growth profiling, strain panel (AID 1159580)
Details: S. cerevisiae deletion strains, growth OD, locus YMR001C, strain CDC5, active compounds read low
The whole screen tested about 5,500 compounds, of which about 2,000 (36%) were called active. About 18% were inconclusive and are not listed. The list shows a part of the results.
A bare number is all that is needed in reply.

- CC(=O)ON=C1c2cc([N+](=O)[O-])ccc2-c2ccc([N+](=O)[O-])cc21: 0.942
- Cc1c(C(=O)N(Cc2ccccc2)Cc2cccs2)cnn1-c1ccc(Cl)cc1: 0.987
- FC(F)(F)c1cccc(-n2c(CSCc3cccc4ccccc34)n[nH]c2=S)c1: 0.992
- O=[N+]([O-])c1ccc2oc(C(O)c3cccc(Cl)c3)cc2c1 (stereo not given): 0.945
- S=c1[nH]nc(Nc2ccc(I)cc2)s1: 0.85

normalized growth reported for this molecule CCc1ccn2cc(Nc3ccccc3Cl)nc2c1 : 0.978

normalized growth reported for this molecule O=C(/C=C/Sc1nc2ccccc2s1)c1ccc(Cl)cc1 : 0.978

* * *

Experiment: chemical genetic growth profiling, strain panel (AID 1159580)
Conditions: S. cerevisiae deletion strains, growth OD, locus YLR330W, strain CHS5
Among all 5,500 compounds or so, about 2,000 (36%) were called active. Another 18% or so got no clear call; they are omitted. Cut-off read from the data, not from the text of the source: active = normalized growth mostly below about 0.91 (no sharp cut-off); inconclusive = no clear call, values can overlap the other calls; inactive = mostly above about 0.92. The list shows a part of the results.
Outcome field: choose from active, inactive

Illustrative cases are given below, each with its answer.
- O=c1cc[nH]c(=S)[nH]1: inactive
- C=C1CCC(=O)C(C)CCC2C1CC2(C)C (configuration not stated): inactive
- CC1=CC2C(CC1=O)C(C)=CCC2C(C)C (configuration not stated): active
- Oc1ccc(Cl)cc1: inactive

Called result for COc1cc2c(cc1OC)C1Cc3ccc(OC)c(OC)c3CN1CC2 (configuration not stated) inactive

Called result for C=C1CCC2C(CC2(C)C)C(=C)CC/C1=N\O (configuration not stated) inactive

Called result for OCc1ccccc1O inactive

Called result for Oc1ccc(Cl)cc1Cc1cc(Cl)ccc1O active

Called result for CC1(C)OC(=O)C=CC2(C)C1CC(O)C1(C)C2CCC2(C)C(c3ccoc3)OC(=O)C3OC321 (configuration not stated) inactive

Called result for CCCC(=O)O[C@]1(C(=O)CO)CCC2[C@@H]3CCC4=CC(=O)CC[C@]4(C)C3[C@@H](O)C[C@@]21C (some centres not stated) inactive

Called result for CC1OC1P(=O)(O)O (configuration not stated) inactive

Called result for CCOC(=O)[C@H](CCc1ccccc1)N[C@@H](C)C(=O)N1[C@H](C(=O)O)C[C@@H]2CCC[C@@H]21 inactive

* * *

Experiment: chemical genetic growth profiling, strain panel (AID 1159580);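 further: tested at 20 µM; growth read once vehicle control cultures reached saturation at 30 °C; 1 = growth at the plate median or of vehicle wells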
Details: S. cerevisiae deletion strains, growth OD, locus YNL250W, strain rad50, active compounds read low
Among all 5,500 compounds or so, about 2,000 (36%) were called active. About 18% were inconclusive and are not listed. Some of the results follow.
Label key: 1 means normalized growth under 1; -1 means normalized growth of 1 or more.

Illustrative cases are given below, each with its answer.
* CC(C)C(C)/C=C/C(C)C1CCC2C3=CC=C4CC(O)CCC4(C)C3CCC21C (configuration not stated) | 1
* O=C(O)CN1C(=O)c2cccc3cccc(c23)C1=O | 1
* CC1(C)C2(Cl)C(Cl)C(Cl)C(Cl)(C(Cl)Cl)C1(Cl)C2Cl (configuration not stated) | 1
* CC(=O)OCC[C@H](C)CCC=C(C)C | -1

Would you kindly verify if normalized growth of Cc1cccc(C)c1NC1=NCCCS1 is strictly less than 1? 1

* * *

Test: chemical genetic growth profiling, strain panel (AID 1159580);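 further: tested at 20 µM; growth read once vehicle control cultures reached saturation at 30 °C; 1 = growth at the plate median or of vehicle wells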
Details: S. cerevisiae deletion strains, growth OD, locus YCL029C, strain bik1
About 2,000 (36%) of roughly 5,500 compounds were called active. Another 18% or so got no clear call; they are omitted. Rule as the data show it: active = normalized growth mostly below about 0.91 (no sharp cut-off); inconclusive = no clear call, values can overlap the other calls; inactive = mostly above about 0.92. The list shows a part of the results.
Outcome field: choose from 1 for active, -1 for inactive

• COc1ccc2c(c1)CCC(c1ccccc1)=C2c1ccc(OCCN2CCCC2)cc1 = 1

Called result for C=C1CCC(=O)C(C)CCC2C1CC2(C)C (centres undefined) -1

Called result for CC(C(=O)O)c1ccc(C(=O)c2cccs2)cc1 (centres undefined) -1

Called result for Nc1nc2ncc(=O)[nH]c2c(=O)[nH]1 -1

Called result for CN1C(C(=O)Nc2ccccn2)=C(O)c2ccccc2S1(=O)=O -1

Called result for CC1OC1P(=O)(O)O (centres undefined) -1

Called result for C=C1CCC2C(CC2(C)C)C(=O)CCC1O (centres undefined) -1

Called result for CC(=O)OCC(OC(C)=O)C(OC(C)=O)C(OC(C)=O)C(OC(C)=O)C(COC(C)=O)OC(C)=O (centres undefined) -1

Called result for COC(=O)C(O)c1ccccc1 (centres undefined) -1

* * *

Test: chemical genetic growth profiling, strain panel (AID 1159580);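 further: tested at 20 µM; growth read once vehicle control cultures reached saturation at 30 °C; 1 = growth at the plate median or of vehicle wells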
Details: S. cerevisiae deletion strains, growth OD, locus YER155C, strain BEM2, active compounds read low
In all, about 5,500 compounds went through this assay and about 2,000 (36%) were called active. Inconclusive results (about 18%) are left out. The list shows a part of the results.
measurement.name: normalized growth
A bare number is all that is needed in reply.

* Cc1ccc(Cl)c(Nc2ccccc2C(=O)O)c1Cl | 0.839
* C=C1CCC(=O)C(C)CCC2C1CC2(C)C (stereo unspecified) | 1.02
* CN1C(C(=O)Nc2ccccn2)=C(O)c2ccccc2S1(=O)=O | 0.962
* CC1(C)NC(=O)N(c2ccc([N+](=O)[O-])c(C(F)(F)F)c2)C1=O | 0.996

Pending compound:
normalized growth reported for this compound CC1(C)OC(=O)C=CC2(C)C1CC(O)C1(C)C2CCC2(C)C(c3ccoc3)OC(=O)C3OC321 (stereo unspecified) : 0.996
